Target: GIPC2, Q8TF65
Sequence (Q8TF65 112-203): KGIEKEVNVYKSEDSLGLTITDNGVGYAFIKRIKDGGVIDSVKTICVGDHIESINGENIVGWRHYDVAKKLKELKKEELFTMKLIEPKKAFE
Experiment: holdup assay
Parameters: key: below the threshold = too weak to quantify, mostly under pKd 3.1 to 4
Details: plain residues with an end cap or a label only (N-terminal biotin on a linker: ado-ado)
assayEndpoint: pKd

Some entries whose results are on file:
| binder | pKd |
| --- | --- |
| DTTVPESEDL [MYOZ2, Q9NPC6] | below the threshold |
| QSLNRMEYIV [JAG1, P78504] | below the threshold |
| KSGKQTMLVV [TRIM29, Q14134;Q14134-2] | below the threshold |
| VRNLPESEEL [MYOZ3, Q8TDC0] | below the threshold |
| QGPVETESVV [SLC45A4, Q5BKX6] | 4.37 |

Please give pKd for each item listed below.
1. QMNQTLPVQV [EPHB3, P54753]
2. EALLQMESVA [CAVIN3, Q969G5]
3. SAAKVLTSMC [GHRHR, Q02643]
4. PLSPEQPTKL [TRIM50, Q86XT4]
5. CLREWCDAFL [BANF1, O75531]
6. YLEPVLSSEL [ATP2A2, P16615;P16615-3]
7. GQEEQVTTRL [TRPC5, Q9UL62]
8. PRAEAEDSFL [PDGFRB, P09619]

["below the threshold", 3.97, "below the threshold", "below the threshold", "below the threshold", "below the threshold", "below the threshold", 3.8]

Working through the 3 binders below one at a time, give pKd for each.
1. NHSSSPETTA [TRMT13, Q9NUP7]
2. EVNETDDTKM [KCNJ1, P48048]
3. QSARLWETSI [ADAM22, Q9P0K1]

1. below the threshold
2. below the threshold
3. 4.11

meta.source: paper PMC9482650
